Quick reference: cytotoxicity at 70.5 h of the listed items.
assay: Human HepG2 cell viability assay in 384 well format; format: toxicity, cell-based; design: dose 125 nL, time 70.5 hour; concentration not given beside the values; conditions: HepG2 cells, read-out: Inhibition
Field: numeric (%). Do not append units.

Known cytotoxicity at 70.5 h results, listed for orientation:
# Compound, Value measured
rows = [
    ("Cc1nnsc1C(=O)N1CCCC(n2nnc3cc(F)ccc32)C1 (configuration not stated)", -5.58),
    ("c1cncc(COC[C@@H]2CCC[C@]23CNCCO3)c1", 0.77),
    ("CC(C)(O)CCc1ccc(C(=O)N2CCN(CCS(C)(=O)=O)CC2)cc1", 0.886),
    ("Cc1nc(CN2CCCC(CCc3ccccc3C(F)(F)F)C2)co1 (configuration not stated)", 22.6),
]

Recorded cytotoxicity at 70.5 h (compound `Cc1cc(-c2ccc(=O)n(CCNC(=O)C3CCCCC3)n2)c(C)o1` ): -1.98

Documented cytotoxicity at 70.5 h of `COC(=O)c1cc(OCC2CCC2)cc(C(=O)N[C@@H]2CCCNC2)c1` : -18.2

Noted for c1ccc(C2CN(C3CC3)CC3(CCN(Cc4ncc[nH]4)CC3)C2)cc1 (configuration not stated) : its cytotoxicity at 70.5 h reads -6.48

# cytotoxicity at 70.5 h (compound: O=C(CC1CCCO1)NS(=O)(=O)Cc1cc(-c2ccccc2)no1 (configuration not stated) ) is 20.6

Note to self: cytotoxicity at 70.5 h recorded for CCC(C)(N)c1nc(=O)c(C(C)C)c(C)[nH]1 (configuration not stated) was -5.63

----------
test: Human HepG2 cell viability assay in 384 well format; format: toxicity, cell-based; design: dose 125 nL, time 70.5 hour; concentration not given beside the values; details: HepG2 cells, read-out: Inhibition
Reported property: cytotoxicity at 70.5 h
Report as: number unit

Looking up `CC(=O)N1CC[C@@]2(C(=O)Nc3ccccc3)CCN(S(C)(=O)=O)CC[C@@H]12` , I found its cytotoxicity at 70.5 h recorded as -1.82%

Lab note: measured cytotoxicity at 70.5 h of `CN(C)[C@@H]1CO[C@H](CNC(=O)c2ccccc2)[C@H]1O` was -8.77%

cytotoxicity at 70.5 h for `CC(C)N1CCC2(C=C(C(=O)NC3CC3)c3ccccc32)CC1` is -1.67%

The reported cytotoxicity at 70.5 h of the compound `CN(C)C[C@@H]1C[C@@H]2CN(C(=O)Cc3cccs3)CC[C@@H]2N1C` was 13.4%

Consider `Cc1ncccc1OC1(C(=O)NCc2noc(C(C)C)n2)CCNCC1` . Its measured cytotoxicity at 70.5 h is -5.62%

Lab note: measured cytotoxicity at 70.5 h of `O=C(CSCCN1CCOCC1)N1CCc2ccccc2C1` was 17.6%

Item: `Cc1ncnc2c1CCN(C(=O)c1ccnnc1)CC2` | cytotoxicity at 70.5 h: -2.5%

# compound `N#Cc1ccc(CN2CCN(Cc3ccncc3Cl)CC2=O)cc1` ; its cytotoxicity at 70.5 h = 2.38%

response.value for `COCc1ccc(C(=O)N2CC[C@H](O)[C@@H](n3ccnc3)CC2)cc1` (field: cytotoxicity at 70.5 h) = -6.05%

Just so you know, measured cytotoxicity at 70.5 h for `CCn1cc(CN2CCN(C(=O)c3cc(Br)cs3)CC2)c(C)n1` came out at 22.9%

# compound `CCn1nc2c(cc1=O)CN(Cc1nc(C)c3ccccc3n1)CC2` ; its cytotoxicity at 70.5 h = -6.18%
